Ref: paper PMC5428354

Below is a list of entries, each paired with its recorded remaining activity at 10 µM value.
Biological target: DPP4 (Homo sapiens)
Sequence (P27487 whole entry): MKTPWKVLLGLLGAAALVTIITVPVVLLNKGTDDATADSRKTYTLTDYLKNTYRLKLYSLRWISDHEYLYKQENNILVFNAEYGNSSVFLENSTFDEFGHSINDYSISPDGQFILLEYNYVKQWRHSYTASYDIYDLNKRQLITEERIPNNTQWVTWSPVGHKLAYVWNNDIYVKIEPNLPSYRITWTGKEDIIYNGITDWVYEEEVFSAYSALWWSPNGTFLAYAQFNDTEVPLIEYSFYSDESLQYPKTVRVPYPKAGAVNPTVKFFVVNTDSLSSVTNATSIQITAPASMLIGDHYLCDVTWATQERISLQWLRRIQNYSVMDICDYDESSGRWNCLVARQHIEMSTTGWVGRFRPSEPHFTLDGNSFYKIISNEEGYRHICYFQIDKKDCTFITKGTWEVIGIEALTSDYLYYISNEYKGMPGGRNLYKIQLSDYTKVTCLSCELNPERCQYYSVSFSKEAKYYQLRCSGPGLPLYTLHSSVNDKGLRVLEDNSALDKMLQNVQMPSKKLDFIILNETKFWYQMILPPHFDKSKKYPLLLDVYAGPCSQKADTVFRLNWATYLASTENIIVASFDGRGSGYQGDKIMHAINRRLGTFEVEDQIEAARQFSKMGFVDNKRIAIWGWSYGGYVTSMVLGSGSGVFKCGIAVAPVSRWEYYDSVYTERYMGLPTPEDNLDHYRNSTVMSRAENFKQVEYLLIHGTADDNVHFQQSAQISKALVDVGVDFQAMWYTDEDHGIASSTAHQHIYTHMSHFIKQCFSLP
Assay: DPP4 activity assay (DPP4 inhibitor screening assay kit, Cayman);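 note: fluorescence read at excitation 360 nm and emission 460 nm after the enzyme reaction ran 30 min at 37 °C in a 96-well plate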
Type: biochemical
Parameters: purchased Cayman Chemical, Ann Arbor, MI, USA
Settings: 0.5 h, 10 µM; control mean 100.0; Figure 1A raw data; read-out: DPP4 activity in library screen, Exp 3
Quantity measured: remaining activity at 10 µM (%)

- C[C@H]1[C@H](OC(=O)CCC(=O)O)O[C@@H]2O[C@@]3(C)CC[C@H]4[C@H](C)CC[C@@H]1[C@@]24OO3 [Artesunate]: 87
- O=C(O)[C@H]1O[C@@H](Oc2cc3oc(-c4ccccc4)cc(=O)c3c(O)c2O)[C@H](O)[C@@H](O)[C@@H]1O: 111
- c1coc(CNc2ncnc3[nH]cnc23)c1: 93
- CC1=C(CC/C(C)=C/CCC2=CC[C@H](C3=CC(=O)O[C@H]3O)O[C@H]2O)C(C)(C)CCC1 [Manoalide]: 125
- Cc1cc(O)c2c(c1)C(=O)c1cccc(O)c1C2=O: 75
- COc1cc(O)c(CC=C(C)C)c(O)c1C(=O)/C=C/c1ccc(O)cc1: 126
- COc1cc(C(C)=O)ccc1O: 116
